Please provide measured T/C for the entries that follow.
- Test system: CD2F1 mice, L1210 leukemia ip, survival T/C
- EXPERIMENTAL DETAILS: NCI In Vivo Anticancer Drug Screen. Data for tumor model L1210 Leukemia (intraperitoneal) in CD2F1 (CDF1) mice
- EXPERIMENTAL CONDITIONS: endpoint: mean survival time; dose: 400.0 mg/kg/injection; schedule: Q04DX003 (ip); vehicle: Klucel (hydroxypropylcellulose) (HPC); higher = longer survival
Inconclusive results and toxic doses are left out.

Solved cases below.
Oc1ccc(C(c2ccc(O)cc2)C(Cl)(Cl)Cl)cc1 | 93 % of control
OCCN(Cc1ccccc1)C(c1ccccc1)c1ccccc1 | 97 % of control
COc1ccc(/C=C\[N+](=O)[O-])cc1OC | 101 % of control

Respectfully, I request T/C for each entry included below.
1. O=C1C(c2ccccc2)=S=C2Sc3ccccc3N12
2. CC(C)(C)OC(=O)C(CC(=O)O)=C(c1ccccc1)c1ccccc1
3. CC(C)(C)CC(C)(C)c1ccc(OCCOc2ccc(C(=O)Nc3ccc([N+](=O)[O-])cc3)cc2)cc1
4. C(=N\N(c1ccccc1)c1ccccc1)/c1ccc(/C=N/N(c2ccccc2)c2ccccc2)cc1
5. Cc1ccc(/C=C2\CCOC2=O)cc1
6. Nc1ncnc2nc(-c3ccc(C(=O)c4cccc([N+](=O)[O-])c4)cc3)[nH]c12

Result:
1. 96 % of control
2. 109 % of control
3. 94 % of control
4. 95 % of control
5. 96 % of control
6. 100 % of control

###

- Test system: CD2F1 mice, L1210 leukemia ip, survival T/C
- EXPERIMENTAL DETAILS: NCI In Vivo Anticancer Drug Screen. Data for tumor model L1210 Leukemia (intraperitoneal) in CD2F1 (CDF1) mice
- EXPERIMENTAL CONDITIONS: endpoint: mean survival time; dose: 200.0 mg/kg/injection; schedule: Q04DX003 (ip); vehicle: Klucel (hydroxypropylcellulose) (HPC); higher = longer survival
Toxic doses and inconclusive results are not listed.
READOUT: T/C

Solved cases below.
CC12CCC(=O)C=C1CCC1C2CCC2(C)C1CCC2(O)C(=O)Cn1c(=O)[nH]cc(F)c1=O (stereo unspecified) | 96 % of control
C(=N\N(c1ccccc1)c1ccccc1)/c1ccc(/C=N/N(c2ccccc2)c2ccccc2)cc1 | 95 % of control
CCOC(=O)c1cnc2c(cnn2CC)c1OCc1ccccc1 | 104 % of control
CC(=O)C1CCC2C3CC=C4CC(n5cc(C)c(=O)[nH]c5=O)CCC4(C)C3CCC12C (stereo unspecified) | 102 % of control
OCCN(Cc1ccccc1)C(c1ccccc1)c1ccccc1 | 97 % of control

Shift focus to the following entry.
Query: Under CD2F1 mice, L1210 leukemia ip, survival T/C: T/C value of `COc1ccc(/C=C\[N+](=O)[O-])cc1OC` ?
Result: 104 % of control

###

Please provide measured T/C for the entries that follow.
- Tested on: CD2F1 mice, L1210 leukemia ip, survival T/C
- EXPERIMENTAL DETAILS: NCI In Vivo Anticancer Drug Screen. Data for tumor model L1210 Leukemia (intraperitoneal) in CD2F1 (CDF1) mice
- EXPERIMENTAL CONDITIONS: endpoint: mean survival time; dose: 25.0 mg/kg/injection; schedule: Q04DX003 (ip); vehicle: saline with Tween-80; higher = longer survival
Toxic doses and inconclusive results are not listed.

CCCOC(=O)c1ccc(NC(=O)Nc2ccc(C(=O)OCC)cc2)cc1 | 102 % of control
CCCCCCCCN(c1ccc(C(=O)NC(CCC(=O)OCC)C(=O)OCC)cc1)S(=O)(=O)c1ccc(C)cc1 (stereo not drawn) | 100 % of control
CCC1=NNC(=O)C1(Br)Br | 102 % of control
NC(=S)N/N=C/c1cccc(CC(O)(C(F)(F)F)C(F)(F)F)n1 | 94 % of control
CN1CCC(CCOCc2ccccc2)(CN2c3ccccc3Sc3ccccc32)C1 (stereo not drawn) | 104 % of control
CC1CCC(NC2=NCCO2)C(C)C1 (stereo not drawn) | 101 % of control
CCCCNC(C)(C)C(SSC(c1cccs1)C(C)(C)NCCCC)c1cccs1 (stereo not drawn) | 97 % of control
Nc1nccc(N2CCCCC2)n1 | 97 % of control

Respectfully, I request T/C for each entry included below.
1. O=[As](O)(O)c1ccccc1[As](=O)(O)O
2. NC(=O)c1cc2c(N)[nH]nc2nc1N
3. C=CCOc1ccncc1
4. CC1COC(Nc2cccc3c2CCCC3)=N1 (stereo not drawn)

Result:
1. 100 % of control
2. 92 % of control
3. 93 % of control
4. 97 % of control
